From: PubChem BioAssay (NCI)

- System: UACC-62 melanoma
- assay.notes: NCI tumour cell line growth inhibition, 48 h
As shown below, each of these compounds has a reported GI50 value.

Prompt: Check the records and state GI50 for `Cc1c(-c2nnc(-c3ccc(F)cc3)o2)nnn1-c1ccnc2c(C(F)(F)F)cccc12`
Completion: > 100000 nM

Others:
Prompt: Please give measured GI50 of the following entry: `Cn1ccnc1C(=O)/C=C/c1ccc(CC(=O)Nc2ccc(F)cc2)cc1`
Completion: 3510 nM

Prompt: Consider the compound `O=C(Nc1ccc(OCc2nnc(-c3ccccc3)o2)c(F)c1)Nc1ccc(Cl)c(C(F)(F)F)c1` . State its measured GI50.
Completion: 2480 nM

Prompt: Retrieve GI50 measured for `O=C(NC1CCCCC1)NS(=O)(=O)c1ccc(-n2nc3c(c2-c2ccc(Cl)cc2)Cc2ccccc2-3)cc1` and print it.
Completion: 10900 nM

---

- Tested on: UACC-62 melanoma
- assay.notes: NCI tumour cell line growth inhibition, 48 h
log10 TGI by entry:
Remember, log10 of TGI, in µM.

Prompt: Please give measured log10 TGI of the following entry: `N#C/C(=C1C=C/C(=N\O)C(Cl)=C\1)c1ccccc1`
Completion: 1.26

Prompt: Using known records, supply log10 TGI for `Oc1ccc(-c2cn3cc(Cl)sc3n2)cc1`
Completion: 1.62

Prompt: Could you please provide reported log10 TGI for CNC(=O)NC(CCCCNC(=O)OCc1ccccc1)C(=O)OCc1ccccc1 (centres undefined) ? Thanks!
Completion: 1.52

Prompt: Return the recorded log10 TGI value; entry: `CC1=CC(=O)c2c(C=O)c(O)c(O)c(C(C)C)c2C1=O`
Completion: 1.75

Prompt: Provide log10 TGI value for the following molecule: O=C(Cc1ccccc1)NC(c1ccc(Cl)cc1)c1c(O)ccc2ccccc12 (centres undefined)
Completion: 0.78

# evaluate next
Prompt: Given O=C1CCC(N2Cc3c(C#CCCCNC(=O)c4cc5c(o4)C(=O)c4ccccc4C5=O)cccc3C2=O)C(=O)N1 (centres undefined) , respond with its log10 TGI.
Completion: 0.56

---

- Tested on: HOP-92 NSCLC
- assay.notes: NCI tumour cell line growth inhibition, 48 h
value.kind: TGI

Example molecules with recorded TGI:
Prompt: Report TGI on HOP-92 NSCLC for this entry: `S=C(c1ccc2c(c1)OCO2)N1CCN(c2cccc(Cl)c2)CC1`
Completion: > 100 µM

Prompt: Name the recorded TGI of `COC(=O)CCc1ccc2c(c1)CC1(Cc3ccccc3C1)C2` , assay system HOP-92 NSCLC.
Completion: > 100 µM

Prompt: Quote HOP-92 NSCLC TGI for entry CC1=CC(=O)[C@@H](O)[C@]2(C)[C@H]3[C@@]4(O)OC[C@@]35[C@@H](C[C@@H]12)OC(=O)C(OC(=O)CC1=CCCC1)[C@H]5[C@@H](C)[C@H]4O (stereo not given in full) .
Completion: 1.15 µM

Prompt: Answer briefly: TGI recorded on HOP-92 NSCLC for O=C1NC(c2c(Cl)cccc2Cl)Nc2ccccc21 (stereo not given)
Completion: > 100 µM

---
Prompt: Give reported TGI for `N#Cc1cc(N(CCCl)CCCl)c([N+](=O)[O-])cc1[N+](=O)[O-]` (HOP-92 NSCLC)
Completion: > 100 µM

---

- Tested on: UACC-257 melanoma
- assay.notes: NCI tumour cell line growth inhibition, 48 h
Where a SMILES comes first, the peptide text is derived from it. [ ]: non-standard residue; d: D form. The star is where a group is joined. NMeF = CN[C@@H](Cc1ccccc1)C(=O)O; NMeV = CN[C@H](C(=O)O)C(C)C; Boc = CC(C)(C)OC(=O)*; OBn = c1ccc(CO*)cc1
Here, each record is paired with measured TGI data.

Examples with their reported TGI follow.
Prompt: Indicate the recorded TGI value for this compound: CC(C)[C@@H](C(=O)N1CCC[C@H]1C(=O)OCc1ccccc1)N(C)C(=O)[C@H](C(C)C)N(C)C(=O)[C@H](Cc1ccccc1)N(C)C(=O)[C@H](NC(=O)OC(C)(C)C)C(C)C (Boc-[dV][NMeF][NMeV][NMeV]P-OBn)
Completion: > 100 µM

Prompt: Return reported TGI. Input compound: C/C=C1/CN2CCC34c5ccccc5N(C)C23C2CC1C4(C(=O)OC)C(O)O2 (stereo unspecified)
Completion: > 100 µM

Prompt: Please list TGI recorded for the compound C=C1CC2CC(=O)C(O)C(C1)C2 (stereo unspecified)
Completion: > 100 µM

Prompt: Recall and state the measured TGI for `S=C(c1ccc2c(c1)OCO2)N1CCN(c2cccc(Cl)c2)CC1` .
Completion: > 21.2 µM

Prompt: Identify measured TGI corresponding to `C(=NCCCN1CCN(CCCN=Cc2cccc3ccccc23)CC1)c1cccc2ccccc12`
Completion: > 100 µM

Now let's try a different one.
Prompt: Given COC(=O)CS(=O)c1ccccc1 (stereo unspecified) , respond with its TGI.
Completion: > 100 µM

---

List of TGI values.
- Test system: PC-3 prostate
- assay.notes: NCI tumour cell line growth inhibition, 48 h
Respond numerically; units are µM and should not be typed.

Prompt: Name the recorded TGI of `C=C(C)[C@@H]1CC[C@]2(C(=O)O)CC[C@]3(C)[C@H](CC[C@@H]4[C@@]5(C)C/C(=C/c6ccc(OC)cc6)C(=O)C(C)(C)[C@@H]5CC[C@]43C)[C@@H]12` , assay system PC-3 prostate.
Completion: 8.24

New cases:
Prompt: Enter recorded TGI with PC-3 prostate for `O=c1c2cc(-c3ccccc3)cnc2sn1-c1ccc(Oc2ccccc2)cc1` here.
Completion: 52.1

Prompt: Identify measured TGI obtained with PC-3 prostate for `O=[N+]([O-])C(=C(N1CCCCC1)N1CCCCC1)/C(Cl)=C(\Cl)[N+](=O)[O-]` .
Completion: 30

---

- Tested on: SW-620 colon
- assay.notes: NCI tumour cell line growth inhibition, 48 h
# TGI listing for each entry below

Before answering, review these 8 worked examples.
Prompt: Complete the entry with TGI for `C/C(=N\Nc1nc2ccccc2s1)c1cnccn1`
Completion: > 100 µM

Prompt: Give reported TGI value for COc1cc(C2CC(c3ccccc3)=NN2C(C)=O)cc(OC)c1OC (centres undefined)
Completion: > 100 µM

Prompt: Tell me its TGI given COc1ccc2c(c1)CCN1CCCc3ccc(OC)cc3C21 (centres undefined) as the entry.
Completion: > 100 µM

Prompt: Name the recorded TGI of the item `Clc1ccc(C2=NN[C@H](c3cn(-c4ccccc4)nc3-c3ccccc3)C2)cc1` in your answer.
Completion: 32 µM

Prompt: Give TGI for `Cc1ccc(-c2nc(N)c(C#N)c3c2CCOc2c-3ccc3ccccc23)cc1`
Completion: > 93.4 µM

Prompt: Identify TGI associated with the compound `CN(C)CCNC1=CC(=O)c2nc3ccccc3c3ccnc1c23`
Completion: 18 µM

Prompt: Kindly indicate its recorded TGI. Item: `CCCC(=O)Nc1ccc2c(c1)CN1C(=O)c3ccccc3C1=N2`
Completion: > 100 µM

Prompt: Answer with the recorded TGI for the compound listed here: `COc1ccc(-c2nc(N3CCOCC3)c3sc(CN(C)c4ncc(C(=O)NO)cn4)cc3n2)cn1`
Completion: 1.41 µM

Next:
Prompt: Identify the reported TGI for the following entry. CC1OC(OC2C(CO)OC(O[C@H]3CC[C@@]4(C)C(=CC[C@H]5[C@@H]6C[C@@H]7O[C@](O)(CC[C@H](CO)COC8OC(CO)C(O)C(O)C8O)[C@@H](C)[C@@H]7[C@@]6(C)CC[C@@H]54)C3)C(OC3OC(C)C(O)C(O)C3O)C2O)C(O)C(O)C1O (some centres undefined)
Completion: > 100 µM

---

- System: NCI-H23 lung
- assay.notes: NCI tumour cell line growth inhibition, 48 h
Reported TGI values follow for various compounds

Prompt: For the compound COc1ccc(NC(=O)CC(=O)N2N=C(N(CCC#N)c3cccc(C)c3)CC2c2ccccc2)cc1 (stereo not drawn) , give its measured TGI value.
Completion: > 100 µM

Prompt: Specify measured TGI for `COc1cc(Nc2nc3cc(C(F)(F)F)ccc3nc2-c2ccccc2)cc(OC)c1OC` .
Completion: > 100 µM

Pending compound:
Prompt: Give recorded TGI. `CC(C)NC(=O)OCc1c(COC(=O)NC(C)C)c(-c2ccc(Cl)c(Cl)c2)n2c1CCC2`
Completion: 60.9 µM

---

- System: OVCAR-5 ovarian
- assay.notes: NCI tumour cell line growth inhibition, 48 h
value.kind: TGI

Field: example entries. Status: answers known.
Prompt: Read the entry `COc1ccc2nc3cc([N+](=O)[O-])ccc3c(Nc3ccc(S(=O)(=O)N=C(N)N)cc3)c2c1` and write its reported TGI.
Completion: > 100 µM

Prompt: State, in one line, measured TGI of `CC(=O)O[C@H]1CC[C@@]2(C)C(=C[C@H](c3ccc(O)cc3)[C@H]3[C@@H]4CC[C@H](OC(C)=O)[C@@]4(C)CC[C@@H]32)C1`
Completion: 97.9 µM

Prompt: Tell me its TGI given `COC(=O)Cc1c(/C=C/C(C)(C)n2cnc(CCN3C(=O)CCC3=O)c2)[nH]c2ccccc12` as the entry.
Completion: > 100 µM

Prompt: Give the reported value of TGI for this record: `N#C/C(C(=S)Nc1ccccc1)=C(/N)N1CCCC1`
Completion: > 100 µM

Continuing:
Prompt: Fill in TGI for record `C=C(C)[C@@H]1CCC2=C[C@H](OC2=O)[C@@]2(C)C[C@@H]2C(=O)/C=C(/C)C(=O)[C@H]1OC(C)=O`
Completion: 43.9 µM

Prompt: Return TGI (reported value) for this compound: Cc1ccc2c(c1)C(C1Cc3cccc(C)c3C1=O)OC2=O (configuration not stated)
Completion: > 100 µM

Prompt: Name the recorded TGI of the compound listed here: CSc1nc(C)c(Br)c(=O)n1C1OC(COC(C)=O)C(OC(C)=O)C(OC(C)=O)C1OC(C)=O (configuration not stated)
Completion: > 100 µM
